Assay: soluble on expression in E. coli; label from the status in PepcDB or PDB records

SEQUENCE_ENTRY: MGSDKIHHHHHHMQNPAIGNVADTTASDFAELPATASHGPLRIEYRWVNAAAGNAPIAVFLHEGLGSVTMWRDWPQALCERLGMRGLVYSRPGYGLSTPRPHDVKWPADFMTAQARDILPALLDALCIDMRERRRMWVIGHSDGGSITLLYAALYPEELAGAVAIAPHVFVEDISVESIAQTRQLYETTDLRSKLGRYHADVDSAFYGWNDIWLNPAFRQWSIAGELTSIRKPLLAVQGHDDNYGTMAQIDTIAAHVPHAQLVKLDACGHSPHRDAPQPLNKAIAAFVLKDGVA
soluble on expression in E. coli: not soluble

SEQUENCE_ENTRY: MRLSEAWAERKKNLSCQRGGHGAIITSITSFSEDFMTTMPAAEPVDAAERRAISPVVVYPNGTLEAPDLARLVQAKNGMEKIDEVIIPPRGGRTFTVPKGHFFRIVSIEGPQVGDLNLWNAHDLNERFFSGKTRALHATHVSVGNRLWSNLPSLRPMATITHDTLSWYGFDEDGGGVHDVIGTRCDPYTNKLLSGGDYHHCCHSNLTNALASARGLSFREAEPHVHDVLNVFMCTGFTRDTHQYFMKASPVRPGDYLELFAEIDLIGALSACPGGDCSATHSSDMAACYPLKVEIFRPDMAVLVGWPWPDRNAYRPVELEHHHHHH
soluble on expression in E. coli: not soluble

SEQUENCE_ENTRY: MPAKERFFGFHPCKLVEQVEDCVRDLLEDALDGLETSLFRECALAFDALQENAVTSEHEHAKRLLLQQGLMRLRDALFTAFYDQMDRLQVYLLRNVFHIPPGLRIPNVNTSEDLVENWEQALGIDPSSVQIDANAEDEHAVDQELVALRQSLRVARQRLQRLCRERSVLEGAFHRLEGALQSRLASTLIPTEPEDPSGDCDALAKQVVTIARAVSELEAVVRSCRDQFLGDRSSAASGGAPPSGTVPAAAGGSDVGAQGALVRPPLELERIFDAHTKATRVDSLDAVDALRRALHRSC
soluble on expression in E. coli: not soluble

====

Assay: soluble on expression in E. coli; label from the status in PepcDB or PDB records
METRIC: soluble on expression in E. coli

Past entries and their recorded results:
SEQUENCE_ENTRY: MVAQNPTSISSGGRKQPQKQDKVQKKQLKKIYVVKIKRIPFGFFEKELLGYFRQFGNVLRIRVARNRRTGNHKGWAYVGFDNKAVAEIAAESMNGYLMFEQRLGCTVMKPELIPKAMRHGPLLVMRPSYLGIAKKDTIARNNTTGKNDVINAKKRVQNLNKTLKKLQNMGINYDFSVSGTPRTPLKKVIDNEVQFISDVTPKSTTPKIVKAATPKAATPKAVTPKQATPKVSTPVTKKVVIKTPKTEKPEPKQFTPKTRAGKKAAAAATPQAKSTLSNTILKSVAASARPAAVEKKTLRSRGKKKSL
RECORDED_VALUE: soluble
//
SEQUENCE_ENTRY: SNATAFVPALVASGLPNEKFCFEGFLPQKKGRMTKLKSLVDEHRTMVFYESPHRLLKTLTQFAEYFGPERQVSVSREISKIHEETVRGTLSELIEHFTATDPRGEIVIVLAGIDD
RECORDED_VALUE: soluble
//
SEQUENCE_ENTRY: MAHHHHHHMVWKGSRERGVQEYRKKSKGNKPTKGEKVSKKGVSSSRQPKQRELLSAKQQQQQNRKNEELRAALAGAFSTEVSSSNAGPAFDGYGKGSPTDRLQFGYAPAVAAEAVAYHSTISTDAWIEARRTRYRTAIVEQKKLRRPNCEPITSILKLQGHWRSTELFEREVHGSHAVAQDKVDDILDTFVSRQRVA
RECORDED_VALUE: not soluble
//
SEQUENCE_ENTRY: SNAMNDIVASTQLPNTIKTITNDLRKLGLKKGMTVIVHSSLSSIGWISGGAVAVVEALMEVITEEGTIIMPTQSSDLSDPKHWSRPPVPEEWWQIIRDNVPAFEPHITPTRAMGKVVECFRTYPNVVRSNHPLGSFAAWGRHAEEITVNQSLSMSLGEESPLRKIYDLDGYILLIGVGYDSNTSVALSEVRSGACELIKVGAPIIENGERVWKEFVDMDYDSDKFVEIGVEFEQKGTVTMGKIGNAKCRLMKQRDIVDFGTEWFRKKN
RECORDED_VALUE: soluble
//
SEQUENCE_ENTRY: MGHHHHHHSHMANSAGSMANSAGSLPTTTIGSFPQSREVRKYRADWKNKRITDEAYETFLKNEIARWIKIQEDIGLDVLVHGEFERNDMVEFFGEKLQGFLVTKFGWVQSYGSRAVKPPIIYGDVKWTAPLTVDETVYAQSLTDKPVKGMLTGPVTILNWSFERVDLPRKVVQDQIALAINEEVLALEAAGIKVIQVDEPALREGLPLRSEYHEQYLKDAVLSFKLATSSVRDETQIHTHMCYSQFGQIIHAIHDLDADVISIETSRSHGDLIKDFEDINYDLGIGLGVYDIHSPRIPTKEEITTAINRSLQQIDRSLFWVNPDCGLKTRKEEEVKDALTVLVNAVKA
RECORDED_VALUE: not soluble

# batch size: 6; output soluble on expression in E. coli per entry
1. MGSDKIHHHHHHMEFYERAKKYEYKFTDTEDMIIEYMRKNKEEIVKLSIQSLADKFFTVPNTIVRLCKKMEYDGFSQLKNNLKEELKNENKEPKNGFESDIKKTLELIDYEKINKVADIIQKSRSIIVYGIGQNIPLCEILVKEIRGGHDNITYYSQRHEVLHDIGKLGEQDMFFALSLSGETKEVIEAAKTAVNKGCKVVALTHICENQLQQIADISLYCYSTIKQVNGYNISDKVPIMMIMRAIIEQYWLR
2. MFKSVAKCDKVEKMLLGTFNLTLDNKNRISLPAKLRSFFDSSIVINRGFENCLEIRKPADFESYFQTFNNFPNTQKDTRTLKRLIFANANLVELDSANRILIPNNLISDAKLDKEIVLIGQFDHLEVWDKVQYEQYLASSESLETVAERMKDAK
3. MIKLSNITKVFQQGTRTIQALNNVSLHVPAGQIYGVIGASGAGKSTLIRCVNLLERPTEGSVQVGGQELTTLSESELTKARRQIGMIFQHFNLLSSRTVFGNVALPLELDNTPKEEIKRRVTELLDLVGLGDKHDSYPANLSGGQKQRVAIARALASNPKVLLCDEATSALDPATTRSILELLKDINRRLGLTILLITHEMDVVKRICDCVAVISNGELIEQDTVSEVFSHPKTPLAQKFIQSTLHLDIPEDYQARLKASPETDSVPMLRMEFTGQSVDAPLLSETARRFNVNNNIISAQMDYAGGVKFGIMLTEMHGTQEETQAAIAWLQDHHVKVEVLGYV
4. MAGVAEFNDKGELLLPKNYREWVMVGTQVTPNELNDGKAPFTEIRTVYVDPESYAHWKKTGEFRDGTVTVKELVSVGDRKGPGSGNGYFMGDYIGLEASVKDSQRFANEPGNWAFYIFYVPDTPLVAAAKNLPTAECAACHKENAKTDMVFTQFYPVLRAAKATGESGVVAPKKLAAALEHHHHHH
5. MGSDKIHHHHHHMPDGNQSLTVTVLSAIAEIGAEEWDGCAGSHNPFIRHAFLLAMEHSGSATAQTGWTPRHLAVRDAEGRLLAAAPLYLKSHSFGEYVFDWSWAQAYERAGGRYYPKLQCAVPFTPVTGPRLLVRPGEDGPRLRRVLAASMVDLARRLGASSVHVTFPSGQEYEGLGEVGYLQRLGSQYHWSNQGYQSFDDFLGQLSSRKRKQIRKERDAVARSGVRITTLVGTEVKSRHWDVFHAFYESVVDRKWGRAYVNRAFFEELSASNLAEAVVLVWAEDDGEPLGAAFNMLGKDTLYGRTWGGGRHVDFLHFEACYYRALDFAIAHGLARVEAGAQGEHKVSRGYLPTPTYSAHWIADAALAEPVARYLAHERAQVAEDMADQTEEGPFRKA
6. MAHHHHHHMQMEEKQAFFVESVDGRKFKMVIRGDLGKLSVAKIRRYLKSYGVPENQLLLAGNRVLEDAMLGEQFGLENEGVLHLREPTTVQHLAPAAVPSTAQSRTQLQQKPELSYEPQSAWRETRYEPAAHDARQMQREIERLQRQVEAAEARNADLEHQLEQVAESSAPYPPRGGA

1. not soluble
2. soluble
3. not soluble
4. soluble
5. not soluble
6. not soluble

====

Experiment: soluble on expression in E. coli; label from the status in PepcDB or PDB records

SEQUENCE_ENTRY: MGSDKIHHHHHHMNERLRQGLVAAEGPLSGEVIKDVECVAGGCIHQAWCLQLKGGRQLFAKTGGADALPMLKVEVEGLKALKAWVDPGVLEVPEPLAFDQVCGEAVLLLPWLDFRAGNQASLGRGLALLHRASAAENPGRFGWPVDGFIGAGSQPGGWREQWGDAFVTLRLRPQLREAARWGLDLVDVEPILAALIPWLDRHQPSPSLVHGDLWSGNANVLSDGRGVLLDPATWWADREVDLAMTQLFGGFSQDFYIGYENVWPLPADASQRVEVYNLYHLINHANLFGGSYRNQSQAILNRLASWLLT
soluble on expression in E. coli: not soluble

SEQUENCE_ENTRY: KGDVDEKLLDKGIEAVLDQTDYVNGGFGSAPKFHHAKAVELLLTHHFFTGDEEVLKAAEITLDAMARGGIYDHLLGGFFRYSTDAKWVTPHYEKMLYDNAELLYLYSIAYALTGKRLYQKIADGIVEYYRKFGCSNEGGFYASQDADIGELDEGGYYLFSDRELKEILDEREFRIATLYYDIQGERKLPRIFLTEEEISKILGVSVEEVERAVNSARRKMLEFREQREMPYIDTTIYAGWNGLMIEALCMHHKVFGDNWSLEMAEKTANRLLKEFWDGRELLHTHNVEGLSEDYIFFARGLLALFEVTQRHEYLEKCFEIVDSAVEKFWDGEDGGFFD
soluble on expression in E. coli: not soluble
